Listed next: entries and their corresponding PBM binding z-score.
System: LXRb:RXRa (NR concentration 270 nM, RXRa partner concentration 90 nM)
Assay: PBM binding z-score (relative to random genomic background probes); higher = stronger binding; sequences stand for … in GC…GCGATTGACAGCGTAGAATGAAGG
Please give the numeric answer without any surrounding text.

Consider the worked cases shown below.
>>> reported_result("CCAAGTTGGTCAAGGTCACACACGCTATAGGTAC")
3.73
>>> reported_result("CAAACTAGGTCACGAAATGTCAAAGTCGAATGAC")
3.49
>>> reported_result("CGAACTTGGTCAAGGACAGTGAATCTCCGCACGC")
-0.622
>>> reported_result("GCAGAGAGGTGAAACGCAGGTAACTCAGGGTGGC")
0.662

**Q:** # PBM binding z-score lookup, item `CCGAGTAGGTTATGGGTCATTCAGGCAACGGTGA`
**A:** 2.57

**Q:** # PBM binding z-score lookup, item `CGTAGTTGGTCAAGGTCACACACGCTATAGGTAC`
**A:** 3.6

---

System: RARb:RXRa (NR concentration 270 nM, RXRa partner concentration 90 nM)
Experiment: PBM binding z-score (relative to random genomic background probes); higher = stronger binding; sequences stand for … in GC…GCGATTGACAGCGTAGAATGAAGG
Test readout: PBM binding z-score
Please give the numeric answer without any surrounding text.

Consider the worked cases shown below.
>>> reported_result("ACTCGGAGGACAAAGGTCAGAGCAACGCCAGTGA")
4.58
>>> reported_result("CCAATTAGTTGACCATAAGGGCAACCGAAGCTCG")
1.67
>>> reported_result("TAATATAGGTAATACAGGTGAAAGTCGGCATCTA")
0.621

**Q:** # PBM binding z-score lookup, item `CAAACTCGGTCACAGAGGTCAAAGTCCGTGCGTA`
**A:** 4.75

**Q:** # PBM binding z-score lookup, item `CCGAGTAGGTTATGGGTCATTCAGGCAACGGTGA`
**A:** 2.3

**Q:** # PBM binding z-score lookup, item `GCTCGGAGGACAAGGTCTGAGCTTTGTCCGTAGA`
**A:** 0.963

**Q:** # PBM binding z-score lookup, item `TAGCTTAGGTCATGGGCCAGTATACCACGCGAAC`
**A:** 4.1

**Q:** # PBM binding z-score lookup, item `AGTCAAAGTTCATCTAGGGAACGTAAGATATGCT`
**A:** 4.92

**Q:** # PBM binding z-score lookup, item `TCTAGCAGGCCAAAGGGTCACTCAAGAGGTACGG`
**A:** 3.74

**Q:** # PBM binding z-score lookup, item `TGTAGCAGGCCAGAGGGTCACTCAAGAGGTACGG`
**A:** 2.35

**Q:** # PBM binding z-score lookup, item `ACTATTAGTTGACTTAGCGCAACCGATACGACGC`
**A:** 0.104

**Q:** # PBM binding z-score lookup, item `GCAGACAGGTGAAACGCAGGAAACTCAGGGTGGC`
**A:** 0.527

---

Listed next: entries and their corresponding PBM binding z-score.
Test system: RARb:RXRa (NR concentration 270 nM, RXRa partner concentration 90 nM)
Assay: PBM binding z-score (relative to random genomic background probes); higher = stronger binding; sequences stand for … in GC…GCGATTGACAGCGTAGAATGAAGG
Please give the numeric answer without any surrounding text.

Consider the worked cases shown below.
>>> reported_result("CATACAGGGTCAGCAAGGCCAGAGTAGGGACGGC")
4.25
>>> reported_result("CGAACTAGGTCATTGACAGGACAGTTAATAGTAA")
3.6
>>> reported_result("AGAATGAGGTTAAGATCAGGGACACAGAATACAT")
2.23
>>> reported_result("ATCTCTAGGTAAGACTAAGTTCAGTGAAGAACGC")
1.19
>>> reported_result("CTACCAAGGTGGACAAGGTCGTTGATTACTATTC")
0.561

**Q:** # PBM binding z-score lookup, item `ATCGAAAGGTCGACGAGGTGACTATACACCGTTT`
**A:** 4.01

**Q:** # PBM binding z-score lookup, item `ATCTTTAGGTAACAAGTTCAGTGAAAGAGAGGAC`
**A:** 1.85

**Q:** # PBM binding z-score lookup, item `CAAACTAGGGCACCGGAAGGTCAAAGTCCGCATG`
**A:** 4.01

**Q:** # PBM binding z-score lookup, item `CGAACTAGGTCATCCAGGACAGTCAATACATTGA`
**A:** 3.95

---

Tested on: PPARa:RXRa (NR concentration 270 nM, RXRa partner concentration 90 nM)
Test: PBM binding z-score (relative to random genomic background probes); higher = stronger binding; sequences stand for … in GC…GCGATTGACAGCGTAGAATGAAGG
Test readout: PBM binding z-score

**Q:** # PBM binding z-score lookup, item `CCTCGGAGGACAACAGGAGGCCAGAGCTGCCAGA`
**A:** -0.509

**Q:** # PBM binding z-score lookup, item `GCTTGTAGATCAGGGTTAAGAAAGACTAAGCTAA`
**A:** 1.55

**Q:** # PBM binding z-score lookup, item `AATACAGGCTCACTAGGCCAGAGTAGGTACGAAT`
**A:** -0.441

**Q:** # PBM binding z-score lookup, item `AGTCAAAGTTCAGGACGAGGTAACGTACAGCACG`
**A:** 3.3

**Q:** # PBM binding z-score lookup, item `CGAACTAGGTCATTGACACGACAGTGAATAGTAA`
**A:** 4.67

**Q:** # PBM binding z-score lookup, item `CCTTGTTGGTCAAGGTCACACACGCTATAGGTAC`
**A:** 4.27

**Q:** # PBM binding z-score lookup, item `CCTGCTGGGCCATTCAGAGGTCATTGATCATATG`
**A:** 3.65

**Q:** # PBM binding z-score lookup, item `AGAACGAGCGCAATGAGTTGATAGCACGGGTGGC`
**A:** -0.619

**Q:** # PBM binding z-score lookup, item `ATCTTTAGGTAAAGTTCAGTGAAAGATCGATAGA`
**A:** 1.87

**Q:** # PBM binding z-score lookup, item `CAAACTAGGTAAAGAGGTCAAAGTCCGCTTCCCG`
**A:** 5.7

**Q:** # PBM binding z-score lookup, item `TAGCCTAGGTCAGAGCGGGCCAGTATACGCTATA`
**A:** 1.42

**Q:** # PBM binding z-score lookup, item `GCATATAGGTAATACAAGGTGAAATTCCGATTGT`
**A:** 1.67

**Q:** # PBM binding z-score lookup, item `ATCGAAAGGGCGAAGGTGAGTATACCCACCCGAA`
**A:** 1.72

**Q:** # PBM binding z-score lookup, item `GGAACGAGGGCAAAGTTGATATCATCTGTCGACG`
**A:** 3.94

**Q:** # PBM binding z-score lookup, item `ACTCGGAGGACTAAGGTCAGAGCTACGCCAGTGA`
**A:** 2.52

**Q:** # PBM binding z-score lookup, item `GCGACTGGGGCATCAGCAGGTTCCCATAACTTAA`
**A:** 0.27

---

System: PPARg:RXRa (NR concentration 180 nM, RXRa partner concentration 90 nM)
Experiment: PBM binding z-score (relative to random genomic background probes); higher = stronger binding; sequences stand for … in GC…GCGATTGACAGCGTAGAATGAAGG
Test readout: PBM binding z-score
Please give the numeric answer without any surrounding text.

>>> reported_result("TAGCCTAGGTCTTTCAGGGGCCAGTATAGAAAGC")
-0.284

**Q:** # PBM binding z-score lookup, item `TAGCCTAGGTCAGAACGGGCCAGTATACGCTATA`
**A:** 0.763

**Q:** # PBM binding z-score lookup, item `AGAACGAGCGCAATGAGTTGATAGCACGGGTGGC`
**A:** 0.568

**Q:** # PBM binding z-score lookup, item `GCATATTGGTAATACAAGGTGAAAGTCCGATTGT`
**A:** 0.364

**Q:** # PBM binding z-score lookup, item `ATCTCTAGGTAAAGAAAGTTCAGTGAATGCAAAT`
**A:** 0.409

**Q:** # PBM binding z-score lookup, item `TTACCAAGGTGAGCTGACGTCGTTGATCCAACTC`
**A:** 0.0549

**Q:** # PBM binding z-score lookup, item `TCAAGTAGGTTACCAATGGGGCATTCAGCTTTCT`
**A:** 2.1

**Q:** # PBM binding z-score lookup, item `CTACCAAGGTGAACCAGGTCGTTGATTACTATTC`
**A:** 1.19

All figures here come from the supplement of paper PMC6555819.
